- study.target: cholecystokinin receptors (Cavia porcellus, UniProt Q63931)
- Construct: Isolated, strip preparations were prepared from gall-bladders removed from male Dunkin-Hartley guinea-pigs; from tissue; host or cells: guinea-pig gall-bladder strips
- Sequence (Q63931 1-430): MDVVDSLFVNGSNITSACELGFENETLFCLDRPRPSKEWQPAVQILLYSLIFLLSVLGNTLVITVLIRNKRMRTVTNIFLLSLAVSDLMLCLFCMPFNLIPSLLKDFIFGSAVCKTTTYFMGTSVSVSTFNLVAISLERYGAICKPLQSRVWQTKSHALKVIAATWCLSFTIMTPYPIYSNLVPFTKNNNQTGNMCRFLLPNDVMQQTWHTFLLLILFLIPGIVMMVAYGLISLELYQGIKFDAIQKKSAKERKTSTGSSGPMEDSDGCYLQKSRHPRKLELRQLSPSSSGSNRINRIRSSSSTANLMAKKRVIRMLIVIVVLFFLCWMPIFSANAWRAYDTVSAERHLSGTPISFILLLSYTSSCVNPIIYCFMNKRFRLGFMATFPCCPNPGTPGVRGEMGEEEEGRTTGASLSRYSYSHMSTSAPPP
- measurement.description: CCK-antagonist activity in isolated guinea-pig gall-bladder strip preparations
- Type: cell-based
- test.settings: guinea-pig gall-bladder strips; CCK-8 as agonist; test compound incubated for 60 minutes; standard errors less than 5%
- Method: The compounds of the invention were also assayed for CCK-antagonist activity as follows: Isolated, strip preparations were prepared from gall-bladders removed from male Dunkin-Hartley guinea-pigs (250-500 g body weight) according to the method of La Morte, W. W., et al., J.P.E.T., 217, (3), 638-644 (1981). The complete gall-bladder is removed and opened along the longitudinal axis. […] Responses are measured as changes in tension from that immediately prior to any drug addition. […]
Non-standard residues stand in square brackets, D forms with d. Residues, ends and D or L forms follow the SMILES beside them. *: point of attachment. Trp(1-Me) = Cn1cc(C[C@H](N)C(=O)O)c2ccccc21; αMeW = C[C@](N)(Cc1c[nH]c2ccccc12)C(=O)O; 2Nal = N[C@@H](Cc1ccc2ccccc2c1)C(=O)O; Boc = CC(C)(C)OC(=O)*; For = O=C*
What pKB was measured for each of the following?
Number only, please.

Entry CC(C)(C)OC(=O)N[C@@H](Cc1c[nH]c2ccccc12)C(=O)N[C@@H](Cc1ccc2ccccc2c1)C(=O)N[C@@H](CC(=O)O)C(=O)NCCc1ccc([N+](=O)[O-])cc1 — recorded pKB = 6.6

Entry COc1cc2c(cc1OC)CN(C(=O)C(CC(=O)O)NC(=O)C(Cc1ccc3ccccc3c1)NC(=O)C(Cc1c[nH]c3ccccc13)NC(=O)OC(C)(C)C)CC2 (stereo not shown) — recorded pKB = 6.6

Entry CC(C)(C)OC(=O)N[C@@H](Cc1c[nH]c2ccccc12)C(=O)N[C@@H](Cc1ccc2ccccc2c1)C(=O)N[C@@H](CC(=O)O)C(=O)NCCc1ccc(S(N)(=O)=O)cc1 — recorded pKB = 6.8

Entry COc1ccc(CCNC(=O)[C@H](CC(=O)O)NC(=O)[C@H](Cc2ccc3ccccc3c2)NC(=O)[C@H](Cc2c[nH]c3ccccc23)NC(=O)OC23CC4CC(CC(C4)C2)C3)cc1 — recorded pKB = 6.0

Entry CC(C)(C)OC(=O)N[C@@H](Cc1c[nH]c2ccccc12)C(=O)N[C@@H](Cc1ccc2ccccc2c1)C(=O)N[C@@H](CC(=O)O)C(=O)N[C@@H]1CCC[C@@H]1c1ccccc1 (single isomer, unassigned; diastereomer 2) [Example 34] — recorded pKB = 6.9

Entry CC(C)(C)OC(=O)N[C@@H](Cc1c[nH]c2ccccc12)C(=O)N[C@@H](Cc1ccc2ccccc2c1)C(=O)N[C@@H](CC(=O)O)C(=O)NCCc1ccccc1F — recorded pKB = 6.4

Entry CC(C)(C)OC(=O)N[C@@H](Cc1c[nH]c2ccccc12)C(=O)N[C@@H](Cc1ccc2ccccc2c1)C(=O)N[C@@H](CC(=O)O)C(=O)NCCc1ccc(Cl)c(Cl)c1 — recorded pKB = 6.0

Entry CC(C)(C)OC(=O)N[C@@H](Cc1c[nH]c2ccccc12)C(=O)N[C@@H](Cc1ccc2ccccc2c1)C(=O)N[C@@H](CC(=O)O)C(=O)N[C@@H]1CCC[C@@H]1c1ccccc1 (single isomer, unassigned; diastereomer 1) [Example 33] — recorded pKB = 7.0

Entry COc1ccc(CCNC(=O)[C@H](CC(=O)O)NC(=O)[C@H](Cc2ccc3ccccc3c2)N(C)C(=O)[C@H](Cc2c[nH]c3ccccc23)NC(=O)OC(C)(C)C)cc1 — recorded pKB = 6.7

Entry COc1ccccc1CCNC(=O)[C@H](CC(=O)O)NC(=O)[C@H](Cc1ccc2ccccc2c1)NC(=O)[C@H](Cc1c[nH]c2ccccc12)NC(=O)OC(C)(C)C — recorded pKB = 7.1

Entry CC(C)(C)OC(=O)N[C@@H](Cc1c[nH]c2ccccc12)C(=O)N[C@@H](Cc1ccc2ccccc2c1)C(=O)N[C@@H](CC(=O)O)C(=O)NCCc1ccncc1 — recorded pKB = 6.2

Entry Cn1cc(C[C@H](NC(=O)OC(C)(C)C)C(=O)N[C@@H](Cc2ccc3ccccc3c2)C(=O)N[C@@H](CC(=O)O)C(=O)N[C@@H](Cc2ccccc2)C(N)=O)c2ccccc21 [Example 45] (Boc-[Trp(1-Me)][2Nal]DF-NH2) — recorded pKB = 6.1

Entry CC(C)(C)OC(=O)N[C@@H](Cc1c[nH]c2ccccc12)C(=O)N[C@@](C)(Cc1ccc2ccccc2c1)C(=O)N[C@@H](CC(=O)O)C(=O)N[C@@H](Cc1ccccc1)C(N)=O — recorded pKB = 6.0

Entry COc1ccc(CCNC(=O)[C@H](CCC(=O)O)NC(=O)[C@H](Cc2ccc3ccccc3c2)NC(=O)[C@H](Cc2c[nH]c3ccccc23)NC(=O)OC(C)(C)C)cc1 — recorded pKB = 6.5

Entry CC(C)(C)OC(=O)N[C@@H](Cc1c[nH]c2ccccc12)C(=O)N[C@@H](Cc1ccc2ccccc2c1)C(=O)N[C@@H](CC(=O)O)C(=O)NCCc1ccc(N)cc1 — recorded pKB = 6.5

Entry CC(C)(C)CCNC(=O)[C@H](CC(=O)O)NC(=O)[C@H](Cc1ccc2ccccc2c1)NC(=O)[C@H](Cc1c[nH]c2ccccc12)NC(=O)OC(C)(C)C — recorded pKB = 7.0

Entry CC(C)(C)OC(=O)N[C@@](C)(Cc1c[nH]c2ccccc12)C(=O)N[C@@H](Cc1ccc2ccccc2c1)C(=O)N[C@@H](CC(=O)O)C(=O)N[C@@H](Cc1ccccc1)C(N)=O [Example 17] (Boc-[αMeW][2Nal]DF-NH2) — recorded pKB = 5.5

Entry CC(C)(C)OC(=O)N[C@@H](Cc1cn(C=O)c2ccccc12)C(=O)N[C@@H](Cc1ccc2ccccc2c1)C(=O)N[C@@H](CC(=O)O)C(=O)N[C@@H](Cc1ccccc1)C(N)=O [Example 60] (Boc-W(For)[2Nal]DF-NH2) — recorded pKB = 6.4

Entry COc1ccc(C[C@H](NC(=O)[C@H](CC(=O)O)NC(=O)[C@H](Cc2ccc3ccccc3c2)NC(=O)[C@H](Cc2c[nH]c3ccccc23)NC(=O)OC(C)(C)C)C(N)=O)cc1 [Example 7] (Boc-W[2Nal]DY(Me)-NH2) — recorded pKB = 5.8
